Entries annotated with measured PBM binding z-score
- Test system: PPARg DBDmut IVT, anti-PPARg (DBD mutation: PPARg1 K132A/R137A, NR concentration 270 nM)
- test.protocol: PBM binding z-score (relative to random genomic background probes); higher = stronger binding; sequences stand for … in GC…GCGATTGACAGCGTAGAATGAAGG
Reply with just the number.

>  <query.sequence>
TTACCAGGGTGAAAGGTCGTTGATGCACGCCTTG

>  <PBM binding z-score>
0.523

$$$$
>  <query.sequence>
ATATGTCGGTTAAGGGTCATTCAGGTTGGTTCGC

>  <PBM binding z-score>
1.06

$$$$

Ask | So what PBM binding z-score did `TGCATGAGGTTATAAGATCAGGGAACGTTGCAAA` get with PPARg DBDmut IVT, anti-PPARg (DBD mutation: PPARg1 K132A/R137A, NR concentration 270 nM)?
Reply | 0.178

Ask | Entry to check: `CGAACGAGGGCAGGAGTTGATAGCAAATGCCGAT`
Reply | -0.762

Ask | Repeat with `TTACCAAGGAGAAAGGTCGTTGATGCACGCCTTG`
Reply | 0.131

Ask | Cool, now `CAGCCGAGGTCAGGGCCAGTATAGGAGGAACGTT`
Reply | -0.547

Ask | And then `GGAACGAGGGCATTAGAGTTGATAGCATGGCGAT` , what is it?
Reply | -0.143

Ask | Query `TAGCCTAGGTCATTGGTCCAGTATAGTACGCATC` next
Reply | 0.614

Ask | Can you handle `CCAACTAGGTCAAGAGGTCAAAGTCCGCTTCCCG` next?
Reply | 5.47

Ask | Quick one: `TTACCAAGGTGAAGGTCGCTGATCCCTCTGTAGA`
Reply | -0.735

Ask | Try `TTACCAAGGTGAAGGACGTTGATCCCTCTGTAGA` next.
Reply | -0.0196
